targetDesc: SARS-CoV-2 main protease (Mpro) (Severe acute respiratory syndrome coronavirus 2)
experimentalDetails: biochemical
measurementConditions: Table 2; read-out: Enzyme IC50
Attribute: IC50
measuredParameter: IC50 (µM)

[[record]]
molecule = "CC(=O)Nc1cncc(C(=O)N2CCN(C3c4ccccc4CCc4ccccc43)CC2)c1 [ZS-361]"
val = 0.044

[[record]]
molecule = "Cc1cncc(C(=O)N2CCC(N(c3cccc(F)c3)c3cccc(F)c3)CC2)c1 [MKP-1404]"
val = 2.66

[[record]]
molecule = "O=C(c1cncc(Br)c1)N1CCN(C2c3ccccc3COc3ccccc32)CC1 (centres unmarked) [NZ-776]"
val = 0.14

[[record]]
molecule = "Cc1cncc(C(=O)N2CCN(C(c3ccccc3)c3ccncc3)CC2)c1 (centres unmarked) [MKP-1442]"
val = 1.6

[[record]]
molecule = "O=C(c1cncc2cc[nH]c12)N1CCN(C(c2cccc(F)c2)c2cccc(F)c2)CC1 [MKP-1371]"
val = 0.025


###

Test system: CoV-2 in Vero cells
experimentalDetails: CoV-2 Vero antiviral assay
Format: cell-based, SARS-CoV-2
measurementConditions: Severe acute respiratory syndrome coronavirus 2, Vero, read-out: CoV-2 Vero EC50/100
measuredParameter: EC50 (µg/mL)

[[record]]
compound = "O=C(c1cncc(Br)c1)N1CCN(C2c3ccccc3COc3ccccc32)CC1 (stereo not drawn)"
targetdesc = "CoV-2 in Vero cells"
val = 2.5

[[record]]
compound = "Cc1cncc(C(=O)N2CCN(C3c4ccccc4CCc4ccccc43)CC2)c1"
targetdesc = "CoV-2 in Vero cells"
val = 5

[[record]]
compound = "O=C(c1cncc(Br)c1)N1CCN(C2c3ccccc3CSc3ccccc32)CC1 (stereo not drawn)"
targetdesc = "CoV-2 in Vero cells"
val = 5

[[record]]
compound = "Cc1cncc(C(=O)N2CCC(C(c3ccccc3)c3ccccc3)CC2)c1"
targetdesc = "CoV-2 in Vero cells"
val = 10

[[record]]
compound = "O=C(c1cncc(Br)c1)N1CCN(C2c3ccccc3C=Cc3ccccc32)CC1"
targetdesc = "CoV-2 in Vero cells"
val = 20

[[record]]
compound = "Cc1cncc(C(=O)N2CC3CCC(C2)N3C(c2ccccc2)c2ccccc2)c1"
targetdesc = "CoV-2 in Vero cells"
val = 5

[[record]]
compound = "Cc1cncc(C(=O)N2CCN(C(c3ccccc3)c3cccnc3)CC2)c1 (stereo not drawn)"
targetdesc = "CoV-2 in Vero cells"
val = 10

[[record]]
compound = "Cc1cncc(C(=O)N2CCN(C(c3ccccc3)c3cccc(F)c3)CC2)c1 (stereo not drawn)"
targetdesc = "CoV-2 in Vero cells"
val = 2.5

[[record]]
compound = "Cc1cncc(C(=O)N2CCC(=C3c4ccccc4C=Cc4ccccc43)CC2)c1"
targetdesc = "CoV-2 in Vero cells"
val = 5


###

Entries annotated with measured CC50 at 24 h
experimentalDetails: Uninfected host cell cytotoxicity counter screen
Assay type: cell-based
measurementConditions: human
measuredParameter: CC50 at 24 h

[[record]]
compound = "O=C(c1cccnc1)N1CCN(C(c2ccc(F)cc2)c2ccc(F)cc2)CC1 [AA-598]"
val = "> 39.8 µM"

[[record]]
compound = "Nc1ccc(C(=O)N2CCN(C(c3ccccc3)c3ccccc3)CC2)cn1 [MKP-1309]"
val = "> 39.8 µM"

[[record]]
compound = "O=C(c1cccnc1)N1CCN(C(c2ccccc2)c2ccsc2)CC1 (stereo not shown) [MKP-1215]"
val = "> 39.8 µM"

[[record]]
compound = "N#Cc1cncc(C(=O)N2CCN(C(c3ccccc3)c3ccccc3)CC2)c1 [MKP-1230]"
val = "> 39.8 µM"

[[record]]
compound = "Cc1cncc(C(=O)N2CCN(C(c3ccccc3)c3ccccc3F)CC2)c1 (stereo not shown) [MKP-1287]"
val = "> 39.8 µM"

[[record]]
compound = "Cc1cncc(C(=O)N2CCN(C(c3ccccc3)c3ccc(S(C)(=O)=O)cc3)CC2)c1 (stereo not shown) [NZ-799]"
val = "> 39.8 µM"

[[record]]
compound = "O=C(c1cncc2cc[nH]c12)N1CCN(C2c3ccccc3CS(=O)(=O)c3ccccc32)CC1 (stereo not shown) [NZ-808]"
val = "> 39.8 µM"

[[record]]
compound = "COc1cncc(C(=O)N2CCN(C3c4ccccc4CCc4ccccc43)CC2)c1 [ZS-319]"
val = "32.1 µM"

[[record]]
compound = "O=C(c1cncc(F)c1)N1CCN(C(c2ccccc2)c2cccnc2)CC1 (stereo not shown) [MKP-1192]"
val = "> 39.8 µM"

[[record]]
compound = "COc1cncc(C(=O)N2CCN(C(c3ccccc3)c3ccccc3)CC2)c1 [AA-589]"
val = "> 39.8 µM"

[[record]]
compound = "Cc1cncc(C(=O)N2CCN(C3c4ccccc4NC(=O)c4ccccc43)CC2)c1 (stereo not shown) [ZS-355]"
val = "> 39.8 µM"

[[record]]
compound = "Cc1cncc(NC(=O)N2CCN(C(c3ccccc3)c3ccccc3)CC2)c1 [MKP-1323]"
val = "31.7 µM"

[[record]]
compound = "O=C(c1cncc([N+](=O)[O-])c1)N1CCN(C2c3ccccc3CCc3ccccc32)CC1 [ZS-339]"
val = "> 39.8 µM"

[[record]]
compound = "O=C(c1cncnc1)N1CCN(C(c2ccccc2)c2ccccc2)CC1 [AA-577]"
val = "> 39.8 µM"

[[record]]
compound = "c1ccc(C(c2ccccc2)N2CCN(c3nccc4ccncc34)CC2)cc1 [AA-649]"
val = "> 39.8 µM"

[[record]]
compound = "O=C(c1cncc(C(F)(F)F)c1)N1CCN(C(c2ccccc2)c2ccccc2)CC1 [AA-590]"
val = "> 39.8 µM"

[[record]]
compound = "O=C(c1cncc(Cl)c1)N1CCC(=C(c2ccccc2)c2ccccc2)CC1 [NZ-781]"
val = "35.8 µM"

[[record]]
compound = "O=Cc1ccccc1C(=O)N1CCC(C(O)(c2ccccc2)c2ccccc2)CC1 [NZ-791]"
val = "> 39.8 µM"

[[record]]
compound = "O=C(c1cnccc1Cl)N1CCN(C(c2ccccc2)c2ccccc2)CC1 [AA-605]"
val = "> 39.8 µM"


###

targetDesc: SARS-CoV-2 main protease (Mpro) (Severe acute respiratory syndrome coronavirus 2)
experimentalDetails: biochemical
measurementConditions: Table 2; read-out: Enzyme IC50
pIC50: −log10 of the molar value.
Recorded pIC50 determines the label; the label ranges are low band: < 6; middle band: ≥ 6 and < 7; high band: ≥ 7

[[record]]
compound = "O=C(c1cncc(F)c1)N1CCC(=C(c2ccccc2)c2ccccc2)CC1 [NZ-780]"
labelvalue = "middle band"

[[record]]
compound = "O=C(c1cncc(Cl)c1)N1CCC(C(O)(c2ccccc2)c2ccccc2)CC1 [NZ-779]"
labelvalue = "middle band"

[[record]]
compound = "Cc1cncc(C(=O)N2CCN(C(c3ccccc3)c3ccc(F)cc3)CC2)c1 (stereo not shown) [AA-620]"
labelvalue = "middle band"

[[record]]
compound = "Cc1cncc(C(=O)N2CCC(=C3c4ccccc4CSc4ccccc43)CC2)c1 [NZ-794]"
labelvalue = "high band"

[[record]]
compound = "COc1cccc(C(c2ccccc2)N2CCN(C(=O)c3cncc(Cl)c3)CC2)c1 (stereo not shown) [MKP-1205]"
labelvalue = "middle band"

[[record]]
compound = "Cc1cncc(C(=O)N2CCC(=C(c3ccc(F)cc3)c3cccc(F)c3)CC2)c1 [MKP-1359]"
labelvalue = "high band"

[[record]]
compound = "COc1cccc(C(c2ccccc2)N2CCN(C(=O)c3cccnc3)CC2)c1 (stereo not shown) [MKP-1203]"
labelvalue = "low band"

[[record]]
compound = "O=S1(=O)Cc2ccccc2C(N2CCC(C(O)c3cccnc3)CC2)c2ccccc21 (stereo not shown) [NZ-806]"
labelvalue = "low band"

[[record]]
compound = "Cc1cncc(C(=O)N2CCC(C(O)(c3ccccc3)c3ccccc3)CC2)c1 [NZ-782]"
labelvalue = "middle band"


###

experimentalDetails: Uninfected host cell cytotoxicity counter screen
Assay type: cell-based
measurementConditions: human
measuredParameter: CC50 at 24 h

[[record]]
molecule = "N#Cc1ccc(C(=O)N2CCN(C(c3ccccc3)c3ccccc3)CC2)cn1"
measuredparameter = "CC50 at 24 h"
val = "> 39.8 µM"

[[record]]
molecule = "O=C1CC(C(=O)N2CCN(C3c4ccccc4CCc4ccccc43)CC2)c2ccccc2N1 (centres unmarked)"
measuredparameter = "CC50 at 24 h"
val = "21.1 µM"

[[record]]
molecule = "O=C(c1cnc(Cl)c(Cl)c1)N1CCN(C(c2ccccc2)c2ccccc2)CC1"
measuredparameter = "CC50 at 24 h"
val = "> 39.8 µM"

[[record]]
molecule = "Cc1cncc(C(=O)N2CCN(C(c3cccc(F)c3)c3cccc(F)c3)CC2)c1"
measuredparameter = "CC50 at 24 h"
val = "> 39.8 µM"

[[record]]
molecule = "Cc1cncc(C(=O)N2CCN(C(c3ccccc3)c3cc(F)cc(F)c3)CC2)c1 (centres unmarked)"
measuredparameter = "CC50 at 24 h"
val = "> 39.8 µM"


###

Below, each entry is listed alongside its reported EC50.
System: SARS-CoV-2 (strain USA-WA1/2020)
experimentalDetails: microbe, parasite or virus in culture
Type: cell-based
measurementConditions: Severe acute respiratory syndrome coronavirus 2; Table 2; SARS-CoV-2 infected HeLa-ACE2 cells; read-out: CoV-2 HeLa EC50
measuredParameter: EC50 (nM)

[[record]]
compound = "Cc1cncc(C(=O)N2CCN(C3c4ccccc4CCc4ccccc43)CC2)c1"
measuredparameter = "EC50"
val = 330

[[record]]
compound = "N#Cc1cncc(C(=O)N2CCN(C(c3ccccc3)c3ccccc3)CC2)c1"
measuredparameter = "EC50"
val = 2800

[[record]]
compound = "COc1cncc(C(=O)N2CCN(C(c3ccccc3)c3ccccc3)CC2)c1"
measuredparameter = "EC50"
val = 1430

[[record]]
compound = "O=C(c1cncc(Br)c1)N1CCN(C2c3ccccc3CCc3ccccc32)CC1"
measuredparameter = "EC50"
val = 700

[[record]]
compound = "O=C(c1cncc(F)c1)N1CCN(C(c2ccccc2)c2ccccc2)CC1"
measuredparameter = "EC50"
val = 2720

[[record]]
compound = "O=C(c1cncc(Br)c1)N1CCN(C2c3ccccc3COc3ccccc32)CC1 (stereo not shown)"
measuredparameter = "EC50"
val = 480

[[record]]
compound = "O=C(c1cncc2cc[nH]c12)N1CCC(=C2c3ccccc3CS(=O)(=O)c3ccccc32)CC1"
measuredparameter = "EC50"
val = 15

[[record]]
compound = "O=C1CC(C(=O)N2CCN(C3c4ccccc4CCc4ccccc43)CC2)c2ccccc2N1 (stereo not shown)"
measuredparameter = "EC50"
val = 2790

[[record]]
compound = "CC(=O)Nc1cncc(C(=O)N2CCN(C3c4ccccc4CCc4ccccc43)CC2)c1"
measuredparameter = "EC50"
val = 1180

[[record]]
compound = "Cc1cncc(C(=O)N2CCN(C(c3cccnc3)c3cccc(F)c3)CC2)c1 (stereo not shown)"
measuredparameter = "EC50"
val = 105

[[record]]
compound = "Cc1cncc(C(=O)N2CCN(C(c3ccccc3)c3ccc(F)cc3)CC2)c1 (stereo not shown)"
measuredparameter = "EC50"
val = 717

[[record]]
compound = "O=C(c1cccnc1)N1CCC(=C(c2ccccc2)c2ccccc2)CC1"
measuredparameter = "EC50"
val = 1010

[[record]]
compound = "Cc1cncc(C(=O)N2CCN(C(c3ccc(F)cc3)c3ccccc3F)CC2)c1 (stereo not shown)"
measuredparameter = "EC50"
val = 747

[[record]]
compound = "COC(=O)c1cncc(C(=O)N2CCN(C3c4ccccc4CCc4ccccc43)CC2)c1"
measuredparameter = "EC50"
val = 7070

[[record]]
compound = "Nc1cncc(C(=O)N2CCN(C3c4ccccc4CCc4ccccc43)CC2)c1"
measuredparameter = "EC50"
val = 406

[[record]]
compound = "O=C(c1cncc(F)c1)N1CCN(C(c2ccccc2)c2cccnc2)CC1 (stereo not shown)"
measuredparameter = "EC50"
val = 4830

[[record]]
compound = "O=C(c1cncc2nc[nH]c12)N1CCN(C2c3ccccc3CS(=O)(=O)c3ccccc32)CC1 (stereo not shown)"
measuredparameter = "EC50"
val = 482

[[record]]
compound = "O=C(c1cncc(F)c1)N1CCC(C(O)(c2ccccc2)c2ccccc2)CC1"
measuredparameter = "EC50"
val = 3630

[[record]]
compound = "Cc1cncc(C(=O)N2CCN(C(c3ccccc3)c3cc(F)cc(F)c3)CC2)c1 (stereo not shown)"
measuredparameter = "EC50"
val = 158

